# Assayed system: G1 APOL1 (Homo sapiens, UniProt O14791, I384M/S342G)
# Construct: expressed in transfected cells
# Sequence (O14791 28-398 S342G/I384M): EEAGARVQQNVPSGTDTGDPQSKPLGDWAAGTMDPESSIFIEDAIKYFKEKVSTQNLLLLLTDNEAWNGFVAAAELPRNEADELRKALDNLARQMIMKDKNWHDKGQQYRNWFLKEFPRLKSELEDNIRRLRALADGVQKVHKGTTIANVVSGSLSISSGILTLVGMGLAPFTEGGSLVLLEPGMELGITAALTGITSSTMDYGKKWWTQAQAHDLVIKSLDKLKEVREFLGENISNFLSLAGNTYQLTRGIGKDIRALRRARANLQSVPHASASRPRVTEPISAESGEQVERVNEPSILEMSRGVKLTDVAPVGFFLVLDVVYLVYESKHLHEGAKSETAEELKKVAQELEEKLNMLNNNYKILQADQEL
# Assay: Acute APOL1 Thallium Assay with inducible stable clones of HEK 293 cells
# Type: cell-based
# Condition info: Table 24, Compounds 287 to 465; read-out: Thallium Assay (IC50)
Measurement kind: IC50

// below: answered compounds
Compound | Assayed system | IC50
NC(=O)CNC(=O)O[C@H]1C[C@H](c2c(-c3ccc(F)cc3)[nH]c3c(F)cc(F)cc32)C1 | G1 APOL1 (Homo sapiens, UniProt O14791, I384M/S342G) | 250 to 1000 nM
O=C(NC1CC1)O[C@H]1C[C@H](c2c(-c3ccc(F)cc3)[nH]c3c(F)cc(F)cc32)C1 | G1 APOL1 (Homo sapiens, UniProt O14791, I384M/S342G) | 250 to 1000 nM

Ask | Query IC50 on G1 APOL1 (Homo sapiens, UniProt O14791, I384M/S342G) for C[C@H](NC(=O)C1CC(Cc2c(-c3ccc(F)cc3)[nH]c3c(F)cc(F)cc23)C1)C(C)(C)O (stereo partly drawn)
Reply | > 1000 nM

Ask | Query IC50 on G1 APOL1 (Homo sapiens, UniProt O14791, I384M/S342G) for `O=C(NCCO)NC[C@H]1C[C@H](c2c(-c3ccc(F)cc3)[nH]c3c(F)cc(F)cc32)C1`
Reply | > 1000 nM

Ask | Query IC50 on G1 APOL1 (Homo sapiens, UniProt O14791, I384M/S342G) for CC(C)(O)CCNC(=O)C1CC(Cc2c(-c3ccc(F)cc3)[nH]c3c(F)cc(F)cc23)C1 (stereo not drawn)
Reply | > 1000 nM

Ask | Query IC50 on G1 APOL1 (Homo sapiens, UniProt O14791, I384M/S342G) for `CNC(=O)NC[C@H]1C[C@H](c2c(-c3ccc(F)cc3)[nH]c3c(F)cc(F)cc32)C1`
Reply | 250 to 1000 nM

Ask | Query IC50 on G1 APOL1 (Homo sapiens, UniProt O14791, I384M/S342G) for Cc1c(CNC(=O)C2CC(Cc3c(-c4ccc(F)cc4)[nH]c4c(F)cc(F)cc34)C2)cnn1C (stereo not drawn)
Reply | > 1000 nM

Ask | Query IC50 on G1 APOL1 (Homo sapiens, UniProt O14791, I384M/S342G) for `O=C(NCc1cn(CC(F)(F)F)cn1)O[C@H]1C[C@H](c2c(-c3ccc(F)cc3)[nH]c3c(F)cc(F)cc32)C1`
Reply | > 1000 nM

Ask | Query IC50 on G1 APOL1 (Homo sapiens, UniProt O14791, I384M/S342G) for `NC(=O)CNC[C@H]1C[C@@H](c2c(-c3ccc(F)cc3)[nH]c3c(F)cc(F)cc32)C1`
Reply | < 250 nM
